- ASSAY_NAME: Oral bioavailability in CD-1 mouse by LC-MS/MS analysis
- Format: ADME, organism-based
- EXPERIMENTAL_SETUP: in vivo
QUANTITY: bioavailability (%)

- C[C@H](CCC(C)(C)O)[C@H]1CC[C@H]2[C@@H]3CC=C4C[C@@](C)(O)CC[C@]4(C)[C@H]3CC[C@]12C: 53

###

- ASSAY_NAME: Drug concentration in CD-1 mouse plasma at 10 mg/kg, ip administered for 90 mins
- Assay type: ADME, organism-based
QUANTITY: concentration at 1.5 h (ng/mL)

* C[C@H](CC[C@](C)(O)C(F)(F)F)[C@H]1CC[C@H]2[C@@H]3CC=C4C[C@@](C)(O)CC[C@]4(C)[C@H]3CC[C@]12C [DALZANEMDOR] | 3210

###

- TARGET_ENTITY: Potassium voltage-gated channel subfamily A member 5 (Homo sapiens, UniProt P22460)
- Sequence (P22460 whole entry): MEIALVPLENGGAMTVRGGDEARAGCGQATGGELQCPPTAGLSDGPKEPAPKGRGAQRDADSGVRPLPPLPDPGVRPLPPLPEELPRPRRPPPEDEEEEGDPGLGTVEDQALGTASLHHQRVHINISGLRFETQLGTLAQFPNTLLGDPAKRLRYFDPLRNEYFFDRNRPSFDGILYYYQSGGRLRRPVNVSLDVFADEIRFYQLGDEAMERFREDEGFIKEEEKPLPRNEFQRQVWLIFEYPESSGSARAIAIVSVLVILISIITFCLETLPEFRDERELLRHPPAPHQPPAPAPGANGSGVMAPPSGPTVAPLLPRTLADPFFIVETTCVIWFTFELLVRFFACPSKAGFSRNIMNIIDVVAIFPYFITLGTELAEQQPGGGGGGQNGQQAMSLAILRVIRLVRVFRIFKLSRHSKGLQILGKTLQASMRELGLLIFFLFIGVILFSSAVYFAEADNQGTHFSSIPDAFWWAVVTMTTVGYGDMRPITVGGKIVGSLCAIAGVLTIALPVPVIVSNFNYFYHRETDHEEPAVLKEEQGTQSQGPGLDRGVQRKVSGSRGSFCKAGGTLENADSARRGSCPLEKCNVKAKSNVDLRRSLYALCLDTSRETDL
- ASSAY_NAME: Inhibition of Kv1.5 (unknown origin) by patch clamp method
pIC50: −log10 of the molar value.
QUANTITY: pIC50

- C[C@H](CC[C@](C)(O)C(F)(F)F)[C@H]1CC[C@H]2[C@@H]3CC=C4C[C@@](C)(O)CC[C@]4(C)[C@H]3CC[C@]12C [DALZANEMDOR]: < 4.52

###

- TARGET_ENTITY: Glutamate NMDA receptor; GRIN1/GRIN2A (Homo sapiens, UniProt Q05586+Q12879)
- ASSAY_NAME: Positive allosteric modulation of recombinant human GluN1/GluN2A receptor stably expressed in HEK293 cells assessed as increase in glycine/L-glutamate-induced channel current at -70 mV holding potential by whole cell patch clamp method relative to control
- Assay type: cell-based
- EXPERIMENTAL_SETUP: filed as positive allosteric modulator
QUANTITY: Emax (%)

• C[C@H](CC[C@](C)(O)C(F)(F)F)[C@H]1CC[C@H]2[C@@H]3CC=C4C[C@@](C)(O)CC[C@@H]4[C@H]3CC[C@]12C = 50
• CC(C)[C@](C)(O)CC[C@@H](C)[C@H]1CC[C@H]2[C@@H]3CC=C4C[C@@](C)(O)CC[C@]4(C)[C@H]3CC[C@]12C = 170
• C[C@H](CC[C@@](C)(O)C1CC1)[C@H]1CC[C@H]2[C@@H]3CC=C4C[C@@](C)(O)CC[C@]4(C)[C@H]3CC[C@]12C = 180
• CC[C@@](C)(O)CC[C@@H](C)[C@H]1CC[C@H]2[C@@H]3CC=C4C[C@@](C)(O)CC[C@]4(C)[C@H]3CC[C@]12C = 280
• CCCC[C@@](C)(O)CC[C@@H](C)[C@H]1CC[C@H]2[C@@H]3CC=C4C[C@@](C)(O)CC[C@]4(C)[C@H]3CC[C@]12C = 190

###

- TARGET_ENTITY: Ionotropic glutamate receptor NMDA 1/2D (Homo sapiens, UniProt O15399+Q05586)
- Sequence (O15399 whole entry, other chains not shown): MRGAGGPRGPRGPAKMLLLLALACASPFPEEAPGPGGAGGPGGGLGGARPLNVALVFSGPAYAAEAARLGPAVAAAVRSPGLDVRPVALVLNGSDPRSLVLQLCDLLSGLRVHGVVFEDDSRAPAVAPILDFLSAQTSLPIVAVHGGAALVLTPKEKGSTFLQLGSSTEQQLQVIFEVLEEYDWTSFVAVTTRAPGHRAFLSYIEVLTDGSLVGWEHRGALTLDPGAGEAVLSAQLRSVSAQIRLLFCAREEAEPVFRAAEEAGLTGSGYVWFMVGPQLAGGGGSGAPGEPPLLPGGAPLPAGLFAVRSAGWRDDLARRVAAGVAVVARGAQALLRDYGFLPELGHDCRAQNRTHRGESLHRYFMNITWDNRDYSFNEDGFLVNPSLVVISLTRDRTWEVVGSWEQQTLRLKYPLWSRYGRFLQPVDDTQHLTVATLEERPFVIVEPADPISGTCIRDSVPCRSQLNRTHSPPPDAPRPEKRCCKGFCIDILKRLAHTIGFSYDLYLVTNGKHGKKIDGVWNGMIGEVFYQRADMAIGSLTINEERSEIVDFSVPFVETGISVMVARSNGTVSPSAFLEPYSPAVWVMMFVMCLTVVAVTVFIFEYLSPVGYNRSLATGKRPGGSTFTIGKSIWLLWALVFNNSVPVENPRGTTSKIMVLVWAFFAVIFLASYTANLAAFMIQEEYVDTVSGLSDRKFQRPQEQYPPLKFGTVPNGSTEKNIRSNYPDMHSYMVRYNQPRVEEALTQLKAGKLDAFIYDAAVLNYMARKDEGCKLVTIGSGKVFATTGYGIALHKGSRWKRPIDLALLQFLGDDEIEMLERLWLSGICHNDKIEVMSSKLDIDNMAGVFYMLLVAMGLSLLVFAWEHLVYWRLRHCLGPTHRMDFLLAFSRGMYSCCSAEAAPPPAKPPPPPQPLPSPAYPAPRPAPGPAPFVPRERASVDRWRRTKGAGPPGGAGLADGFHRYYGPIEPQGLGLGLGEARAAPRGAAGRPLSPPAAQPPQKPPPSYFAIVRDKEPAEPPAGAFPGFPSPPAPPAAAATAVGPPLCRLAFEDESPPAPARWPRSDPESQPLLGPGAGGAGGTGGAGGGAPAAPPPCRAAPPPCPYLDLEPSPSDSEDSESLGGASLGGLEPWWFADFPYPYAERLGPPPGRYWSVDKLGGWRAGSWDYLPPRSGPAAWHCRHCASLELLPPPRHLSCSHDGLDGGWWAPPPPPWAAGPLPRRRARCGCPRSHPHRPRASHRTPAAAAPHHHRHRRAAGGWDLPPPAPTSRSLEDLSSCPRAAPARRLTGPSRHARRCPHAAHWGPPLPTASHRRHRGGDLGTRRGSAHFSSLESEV
- ASSAY_NAME: Positive allosteric modulation of recombinant human GluN1/GluN2D receptor stably expressed in HEK293 cells assessed as increase in glycine/L-glutamate-induced channel current at -70 mV holding potential by whole cell patch clamp method
QUANTITY: EC50 (µM)

• C[C@H](CC[C@](C)(O)C(F)(F)F)[C@H]1CC[C@H]2[C@@H]3CC=C4C[C@@](C)(O)CC[C@]4(C)[C@H]3CC[C@]12C [DALZANEMDOR] = 0.43
